These entries and their values trace back to PubChem BioAssay AID1918931.

For each of the molecules below, state its viability, T/C.
System: 138582-337-R-J1-PDC complex spheroid viability
Experiment: Anticancer human tumor 138582-337-R-J1-PDC patient-derived Merkel cell tumor cell line growth inhibition
Conditions: second compound 0.316 µM; first compound 0.000316 µM; stronger effect = lower value
Source text: Multicellular complex tumor spheroid response to LSD1 Inhibitor Iadademstat in combination with a variety of drugs and investigational agents in selected tumor cell lines The current study was undertaken to assess response to LSD1 inhibitors in combination with standard-of-care drugs and investigational agents in solid tumor complex spheroid models as well as in the K-562 leukemia. […] Compounds. […] If the clinical Cmax for an agent had not been determined, the highest concentration tested was 10 microM. […]
Give bare numbers, in %.

Molecule	Assayed System	Unit Annotation	viability, T/C
CC(C)CC(NC(=O)CNC(=O)c1cc(Cl)ccc1Cl)B1OC(=O)CC(CC(=O)O)(C(=O)O)O1 (centres undefined) + NC1CCC(NC2CC2c2ccccc2)CC1	138582-337-R-J1-PDC complex spheroid viability	%	109

I would be grateful if you could provide viability, T/C for each of the following entries.
1. CC[C@@]1(O)C(=O)OCc2c1cc1n(c2=O)Cc2cc3c(CN(C)C)c(O)ccc3nc2-1 + NC1CCC(NC2CC2c2ccccc2)CC1
2. CC[C@@]1(O)C(=O)OCc2c1cc1n(c2=O)Cc2cc3c(CN(C)C)c(O)ccc3nc2-1 + NC1CC1c1ccc(-c2cccc(O)c2)cc1

101
80.2

Looking for the measured viability, T/C of CC(C)CC(NC(=O)C(Cc1ccccc1)NC(=O)c1cnccn1)B(O)O (centres undefined) + NC1CCC(NC2CC2c2ccccc2)CC1 , can you help?
116

====

For each of the compounds below, state its viability, T/C.
Test system: 138582-337-R-J1-PDC complex spheroid viability
Test: Anticancer human tumor 138582-337-R-J1-PDC cell line growth inhibition;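 note: spheroids exposed to agents for 7 days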;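 for viability, T/C: 100% = DMSO vehicle control viability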
Details: second compound 0.1 µM; first compound 0.1 µM; stronger effect = lower value
Numbers only, in %.

Compound	viability, T/C [%]
O=C(c1cc(Cc2n[nH]c(=O)c3ccccc23)ccc1F)N1CCN(C(=O)C2CC2)CC1 + NC1CCC(NC2CC2c2ccccc2)CC1	91.2
CC(C)c1c(-c2ccccc2)nc2c(C#N)c[nH]n2c1=O + NC1CC1c1ccc(-c2cccc(O)c2)cc1	76.3
CC(C)CC(NC(=O)C(Cc1ccccc1)NC(=O)c1cnccn1)B(O)O (stereo unspecified) + NC1CC1c1ccc(-c2cccc(O)c2)cc1	0.28
O=C(C=Cn1cnc(-c2cc(C(F)(F)F)cc(C(F)(F)F)c2)n1)NNc1cnccn1 + NC1CC1c1ccc(-c2cccc(O)c2)cc1	17.4
CC1COCCN1c1cc(C2(S(C)(=N)=O)CC2)nc(-c2ccnc3[nH]ccc23)n1 (stereo unspecified) + NC1CCC(NC2CC2c2ccccc2)CC1	91.1

Please turn your attention to the following entry.
Looking for the measured viability, T/C of O=C(C=Cn1cnc(-c2cc(C(F)(F)F)cc(C(F)(F)F)c2)n1)NNc1cnccn1 + NC1CCC(NC2CC2c2ccccc2)CC1 , can you help?
18.4

====

Test system: 138582-337-R-J1-PDC complex spheroid viability
Experiment: Anticancer human tumor 138582-337-R-J1-PDC cell line growth inhibition;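 note: spheroids exposed to agents for 7 days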;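 for viability, T/C: 100% = DMSO vehicle control viability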
Conditions: second compound 10 µM; first compound 0.00316 µM; stronger effect = lower value
Quantity Kind: viability, T/C (%)
One number for each entry, in %.

Use the examples below as a reference point.
Molecule	viability, T/C [%]
CC1COCCN1c1cc(-c2ccnn2C)c2ccnc(-c3ccn[nH]3)c2n1 (stereo unspecified) + NC1CC1c1ccc(-c2cccc(O)c2)cc1	75.6
O=C(C=Cn1cnc(-c2cc(C(F)(F)F)cc(C(F)(F)F)c2)n1)NNc1cnccn1 + NC1CC1c1ccc(-c2cccc(O)c2)cc1	55.4
O=C(C=Cn1cnc(-c2cc(C(F)(F)F)cc(C(F)(F)F)c2)n1)NNc1cnccn1 + NC1CCC(NC2CC2c2ccccc2)CC1	75

I would be grateful if you could provide viability, T/C for each of the following entries.
1. CC1COCCN1c1cc(-c2ccnn2C)c2ccnc(-c3ccn[nH]3)c2n1 (stereo unspecified) + NC1CCC(NC2CC2c2ccccc2)CC1
2. Cn1ncnc1C1c2n[nH]c(=O)c3cc(F)cc(c23)NC1c1ccc(F)cc1 (stereo unspecified) + NC1CCC(NC2CC2c2ccccc2)CC1

1. 75.7
2. 83.2

I would be grateful if you could provide viability, T/C for each of the following entries.
1. CC(C)CC(NC(=O)C(Cc1ccccc1)NC(=O)c1cnccn1)B(O)O (stereo unspecified) + NC1CCC(NC2CC2c2ccccc2)CC1
2. COc1cc(Nc2ncc3c(n2)-c2ccc(Cl)cc2C(c2c(F)cccc2OC)=NC3)ccc1C(=O)O + NC1CCC(NC2CC2c2ccccc2)CC1
3. CC[C@@]1(O)C(=O)OCc2c1cc1n(c2=O)Cc2cc3c(CN(C)C)c(O)ccc3nc2-1 + NC1CC1c1ccc(-c2cccc(O)c2)cc1
4. Cn1ncnc1C1c2n[nH]c(=O)c3cc(F)cc(c23)NC1c1ccc(F)cc1 (stereo unspecified) + NC1CC1c1ccc(-c2cccc(O)c2)cc1
5. CC(C)CC(NC(=O)C(Cc1ccccc1)NC(=O)c1cnccn1)B(O)O (stereo unspecified) + NC1CC1c1ccc(-c2cccc(O)c2)cc1
6. Nc1ncn(C2CC(O)C(CO)O2)c(=O)n1 (stereo unspecified) + NC1CC1c1ccc(-c2cccc(O)c2)cc1
7. CC(C)CC(NC(=O)CNC(=O)c1cc(Cl)ccc1Cl)B1OC(=O)CC(CC(=O)O)(C(=O)O)O1 (stereo unspecified) + NC1CC1c1ccc(-c2cccc(O)c2)cc1

0.75
99.9
100
100
1.52
85.8
129

I would be grateful if you could provide viability, T/C for each of the following entries.
1. Nc1ncn(C2CC(O)C(CO)O2)c(=O)n1 (stereo unspecified) + NC1CCC(NC2CC2c2ccccc2)CC1
2. COc1cc(Nc2ncc3c(n2)-c2ccc(Cl)cc2C(c2c(F)cccc2OC)=NC3)ccc1C(=O)O + NC1CC1c1ccc(-c2cccc(O)c2)cc1
3. CC[C@@]1(O)C(=O)OCc2c1cc1n(c2=O)Cc2cc3c(CN(C)C)c(O)ccc3nc2-1 + NC1CCC(NC2CC2c2ccccc2)CC1
4. CC(C)CC(NC(=O)CNC(=O)c1cc(Cl)ccc1Cl)B1OC(=O)CC(CC(=O)O)(C(=O)O)O1 (stereo unspecified) + NC1CCC(NC2CC2c2ccccc2)CC1

1. 87.2
2. 82.6
3. 86.8
4. 101

====

Test system: 138582-337-R-J1-PDC complex spheroid viability
Assay: Anticancer human tumor 138582-337-R-J1-PDC cell line growth inhibition;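 note: spheroids exposed to agents for 7 days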;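 for viability, T/C: 100% = DMSO vehicle control viability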
Settings: second compound 0.1 µM; first compound 0.3 µM; stronger effect = lower value
Quantity Kind: viability, T/C (%)
Give bare numbers, in %.

Use the examples below as a reference point.
Molecule	viability, T/C (%)
O=C(C=Cc1cccc(S(=O)(=O)Nc2ccccc2)c1)NO + NC1CCC(NC2CC2c2ccccc2)CC1	75.3
COc1cc(C2c3cc4c(cc3C(OC3OC5COC(C)OC5C(O)C3O)C3COC(=O)C23)OCO4)cc(OC)c1O (stereo not drawn) + NC1CC1c1ccc(-c2cccc(O)c2)cc1	48.5
NS(=O)(=O)OCC1CC(n2ccc3c(NC4CCc5ccccc54)ncnc32)CC1O (stereo not drawn) + NC1CCC(NC2CC2c2ccccc2)CC1	67.2
Nc1ncn(C2CC(O)C(CO)S2)c(=O)n1 (stereo not drawn) + NC1CC1c1ccc(-c2cccc(O)c2)cc1	69.3
CCN(c1cc(-c2ccc(CN3CCOCC3)cc2)cc(C(=O)NCc2c(C)cc(C)[nH]c2=O)c1C)C1CCOCC1 + NC1CCC(NC2CC2c2ccccc2)CC1	92.4

I would be grateful if you could provide viability, T/C for each of the following entries.
1. Nc1ccn(C2OC(CO)C(O)C2(F)F)c(=O)n1 (stereo not drawn) + NC1CC1c1ccc(-c2cccc(O)c2)cc1
2. CCc1c2c(nc3ccc(O)cc13)-c1cc3c(c(=O)n1C2)COC(=O)[C@]3(O)CC + NC1CC1c1ccc(-c2cccc(O)c2)cc1

1: 58.3; 2: 0.2

Looking for the measured viability, T/C of CCc1c2c(nc3ccc(O)cc13)-c1cc3c(c(=O)n1C2)COC(=O)[C@]3(O)CC + NC1CCC(NC2CC2c2ccccc2)CC1 , can you help?
0.49

====

Test system: 138582-337-R-J1-PDC complex spheroid viability
Experiment: Anticancer human tumor 138582-337-R-J1-PDC cell line growth inhibition;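 note: spheroids exposed to agents for 7 days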
Conditions: curve of first compound; second compound 10 µM
Quantity Kind: IC50 (nM)
One number for each entry, in nM.

I would be grateful if you could provide IC50 for each of the following entries.
1. NS(=O)(=O)OCC1CC(n2ccc3c(NC4CCc5ccccc54)ncnc32)CC1O (stereo not given) + NC1CCC(NC2CC2c2ccccc2)CC1
2. O=C(C=Cc1cccc(S(=O)(=O)Nc2ccccc2)c1)NO + NC1CC1c1ccc(-c2cccc(O)c2)cc1
3. CCc1c2c(nc3ccc(O)cc13)-c1cc3c(c(=O)n1C2)COC(=O)[C@]3(O)CC + NC1CC1c1ccc(-c2cccc(O)c2)cc1

1: 819; 2: 113; 3: 5.59

I would be grateful if you could provide IC50 for each of the following entries.
1. Nc1ccccc1NC(=O)c1ccc(CNC(=O)OCc2cccnc2)cc1 + NC1CCC(NC2CC2c2ccccc2)CC1
2. COc1ccc([C@@H](O)c2cc(-c3ncnc4cc(N5CCOCC5)ccc34)c(F)cc2Cl)nn1 + NC1CCC(NC2CC2c2ccccc2)CC1
3. CC(C)CC(NC(=O)C(Cc1ccccc1)NC(=O)c1cnccn1)B(O)O (stereo not given) + NC1CC1c1ccc(-c2cccc(O)c2)cc1

138
1410
0.406
